I'd be grateful if you could share measured pIC50 for these entries.
- Protocol Details: Binding affinity towards histamine receptor by inhibiting specific binding of [3H]-mepyramine (3 nM) in vitro to membranes of rat brain without cerebellum
- Type: cell membranes
Give bare numbers, as −log10 of the molar value.

• CN1CCN2CC(c3ccccc3)c3ccccc3C2C1 (single isomer, unassigned; (-)) = 7.40
• CN(C)CC1NCC(c2ccccc2)c2ccccc21 (centres undefined) = 5.70
• COc1ccc(C2CN3CCN(C)CC3c3ccccc32)cc1 (centres undefined) = 6.17
• CN1CCN2c3ccccc3Cc3ccccc3C2C1 (centres undefined) = 7.85
• CN1CCN2CC(c3ccccc3)c3ccccc3C2C1 (stereo in doubt; 10) = 5.55
• CN1CCN2CC(c3ccccc3)c3ccccc3C2C1 (stereo in doubt; 7a) = 7.22
• CCNCC1NCC(c2ccccc2)c2ccccc21 (cis isomer) = 5.30
• CN1CCN2CC(c3ccc(Cl)cc3)c3ccccc3C2C1 (centres undefined) = 6.42
• CCN1CCN2CC(c3ccccc3)c3ccccc3C2C1 (centres undefined) = 6.55
• CNCC1NCC(c2ccccc2)c2ccccc21 (stereo in doubt; 4a) = 5.46

Record pIC50 per entry; entries follow.
1. CN1CCN2CC(c3ccc([N+](=O)[O-])cc3)c3ccccc3C2C1 (cis isomer)
2. CN(C)CCCN1c2ccccc2CCc2ccccc21
3. CN1CCN2CC(c3ccc(N)cc3)c3ccccc3C2C1 (cis isomer)
4. CNCC1NCC(c2ccccc2)c2ccccc21 (stereo in doubt; 5)

Data returned:
6.28
7.52
6.07
6.77

Data request: Assign pIC50 to the following record: CN1CCN2CC(c3ccc(O)cc3)c3ccccc3C2C1 (centres undefined)
Data returned: 6.72
